- System: Mus musculus
- experiment_description: Analgesic agonist activity in acetic acid induced mouse writhing assay, subcutaneous administration
- Format: functional
- test_parameters: sc
measured_quantity: ED50 (µmol/kg)
Enter your answer as a number in µmol/kg; do not include the unit.

// query Assign ED50 to the following record: C[C@H]1[C@H]2Cc3ccc(O)cc3[C@]1(C)CCN2CC1CC1 [CYCLAZOCINE]
// result 0.41

// query Assign ED50 to the following record: CC[C@@H]1C2[C@H]3Cc4ccc(OC)c5c4[C@@]2(CCN3C)[C@@H](O5)[C@H](O)C1(C)C (stereo partly drawn)
// result 21.5

// query Assign ED50 to the following record: COc1ccc2c3c1O[C@H]1C(=O)C(C)(C)CC4[C@@H](C2)N(CC2CC2)CC[C@@]341 (stereo partly drawn)
// result 5.3

// query Assign ED50 to the following record: CN1CC[C@]23c4c5ccc(O)c4O[C@H]2C(=O)C(C)(C)CC3[C@H]1C5 (stereo partly drawn)
// result 0.19

// query Assign ED50 to the following record: CC1(C)CC2[C@H]3Cc4ccc(O)c5c4[C@@]2(CCN3CC2CCC2)[C@@H](O5)C1=O (stereo partly drawn)
// result 2.2

// query Assign ED50 to the following record: COc1ccc2c3c1O[C@H]1C(=O)C(C)(C)[C@H](C)C4[C@@H](C2)N(CC2CCC2)CC[C@@]341 (stereo partly drawn)
// result 17.2

// query Assign ED50 to the following record: COc1ccc2c3c1O[C@H]1[C@@H](O)C=C[C@H]4[C@@H](C2)N(C)CC[C@@]341 [CODEINE]
// result 10.3

# credit: ChEMBL document CHEMBL1121639
